Reference source for all entries: patent US4479954A

Listing: Acute toxicity, number of dead cases / number of cases tested, 1,000 mg/kg of selected molecules
Tested on: DDY strain mice
Test: Acute Toxicity Test, oral, mice (Experiment 2)
Assay type: in vivo
Cond: 1,000 mg/kg oral, observation within one week
Observed property: Acute toxicity, number of dead cases / number of cases tested, 1,000 mg/kg

Molecule | Measurement
CCCCCC(=O)OC(CN1CCN(c2ccccn2)CC1)CN1C(=O)C2CC=CCC2C1=O (stereo not drawn) | 0/5
CCCCCC/C=C/C(=O)OC(CN1CCN(c2ccccn2)CC1)CN1C(=O)[C@H]2CC=CC[C@H]2C1=O.O=C(O)/C=C\C(=O)O.O=C(O)/C=C\C(=O)O (relative stereo) | 0/5
O=C(O)/C=C\C(=O)O.O=C(OC(CN1CCN(c2ccccn2)CC1)CN1C(=O)CCC1=O)C1CCCCC1 (stereo not drawn) | 0/5
CCCCCCCCCC(=O)OC(CN1CCN(c2ccccn2)CC1)CN1C(=O)C2CC=CCC2C1=O (stereo not drawn) | 0/5
O=C(O)/C=C\C(=O)O.O=C(OC(CN1CCN(c2ccccn2)CC1)CN1C(=O)[C@H]2CC=CC[C@H]2C1=O)c1cccnc1 (relative stereo) | 0/5
O=C(OC(CN1CCN(c2ccccn2)CC1)CN1C(=O)[C@@H]2[C@H](C1=O)[C@@H]1C=C[C@H]2C1)C1CCCCC1 (stereo partly drawn) | 0/5
